system: Pristionchus pacificus; experiment: Pristionchus pacificus motor disruption dose-response on solid media, 1 h; details: conc 60; count of 20 animals per trial, one hour
Can you tell me rep 1 paralyzed for the items I'm about to list?
Numbers only.

Completed entries (count: 6):
Clc1ccc(N2CCN(CC3CC4C=CC3C4)CC2)cc1 (stereo not shown); 10
FC(F)(F)c1cccc(N2CCN(CC3CCCCC3)CC2)c1; 0
c1cc(N2CCN(CC3CCC3)CC2)ccn1; 0
FC(F)(F)c1cccc(N2CCN(CC3CCCC3)CC2)c1; 0
CC1CCC(N2CCN(c3ccc(Cl)cc3)CC2)C1 (stereo not shown); 13
O=[N+]([O-])c1ccc(N2CCN(CC3CCCCC3)CC2)cc1; 18

# ---- query compound ----
### Prompt Fill in: rep 1 paralyzed of c1ccc(N2CCN(C3CCCCCC3)CC2)cc1 is ___
### Response 0

----------
tested on: Pristionchus pacificus; test: Pristionchus pacificus motor disruption dose-response on solid media, 1 h; settings: conc 15; count of 20 animals per trial, one hour
So basically: is rep 1 no phene under 7? Then 1. Not under? Then -1.

Fc1ccccc1N1CCN(C2CCCCCC2)CC1 [Nemacol-56]; -1
c1ccc(N2CCN(C3CCCCCC3)CC2)cc1 [Nemacol-59]; -1
FC(F)(F)c1cccc(N2CCN(CC3CCCCC3)CC2)c1 [Nemacol-49]; -1
CC1CCC(N2CCN(c3ccc(Cl)cc3)CC2)C1 (centres unmarked) [Nemacol-44]; 1
CC1CCC(N2CCN(c3ccccc3)CC2)CC1 (centres unmarked) [Nemacol-50]; -1

### Prompt Answer whether the molecule Clc1ccc(N2CCN(CC3CC4C=CC3C4)CC2)cc1 (centres unmarked) [Nemacol-46] has rep 1 no phene strictly less than 7
### Response 1

----------
test system: Pristionchus pacificus; assay: Pristionchus pacificus motor disruption dose-response on solid media, 1 h; conditions: conc 15; count of 20 animals per trial, one hour
parameter: rep 1 atypical locomotion

Worked examples, 5 compounds total:
Fc1ccccc1N1CCN(C2CCCCCC2)CC1 [Nemacol-56]; 0
O=[N+]([O-])c1ccc(N2CCN(CC3CCCCC3)CC2)cc1 [Nemacol-1]; 13
c1ccc(N2CCN(C3CCCCCCC3)CC2)cc1 [Nemacol-54]; 0
FC(F)(F)c1cccc(N2CCN(CC3CCCC3)CC2)c1 [Nemacol-63]; 0
c1ccc(N2CCN(C3CCCCCC3)CC2)cc1 [Nemacol-59]; 0

// batch mode: one rep 1 atypical locomotion value per listed entry
1. CC1CCC(N2CCN(c3ccccc3)CC2)CC1 (stereo not shown) [Nemacol-50]
2. CC1CCC(N2CCN(c3ccc(Cl)cc3)CC2)C1 (stereo not shown) [Nemacol-44]
3. c1cc(N2CCN(CC3CCC3)CC2)ccn1 [Nemacol-60]
4. Clc1ccc(N2CCN(CC3CC4C=CC3C4)CC2)cc1 (stereo not shown) [Nemacol-46]
5. FC(F)(F)c1cccc(N2CCN(CC3CCCCC3)CC2)c1 [Nemacol-49]

### Response
[0, 13, 0, 11, 0]

----------
Task for the reader: assign each of the following compounds its reported rep 1 no phene.
system: Pristionchus pacificus; assay: Pristionchus pacificus motor disruption dose-response on solid media, 1 h; conditions: conc 3.75; count of 20 animals per trial, one hour
Give bare numbers.

Some solved cases for reference:
O=[N+]([O-])c1ccc(N2CCN(C3CCCCC3)CC2)cc1 [Nemacol-64]; 20
CC1CCC(N2CCN(c3ccccc3)CC2)CC1 (stereo not drawn) [Nemacol-50]; 20

// below: rep 1 no phene requested for another compound
### Prompt What value of measured rep 1 no phene is listed for FC(F)(F)c1cccc(N2CCN(CC3CCCC3)CC2)c1 [Nemacol-63] ?
### Response 20
